Entries and their inhibition at 0.01 µM
SYSTEM: PDGFRα(V561D) (Homo sapiens, UniProt P16234, V561D)
Construct: purchased Carna Biosciences
Sequence (P16234 24-1089 V561D): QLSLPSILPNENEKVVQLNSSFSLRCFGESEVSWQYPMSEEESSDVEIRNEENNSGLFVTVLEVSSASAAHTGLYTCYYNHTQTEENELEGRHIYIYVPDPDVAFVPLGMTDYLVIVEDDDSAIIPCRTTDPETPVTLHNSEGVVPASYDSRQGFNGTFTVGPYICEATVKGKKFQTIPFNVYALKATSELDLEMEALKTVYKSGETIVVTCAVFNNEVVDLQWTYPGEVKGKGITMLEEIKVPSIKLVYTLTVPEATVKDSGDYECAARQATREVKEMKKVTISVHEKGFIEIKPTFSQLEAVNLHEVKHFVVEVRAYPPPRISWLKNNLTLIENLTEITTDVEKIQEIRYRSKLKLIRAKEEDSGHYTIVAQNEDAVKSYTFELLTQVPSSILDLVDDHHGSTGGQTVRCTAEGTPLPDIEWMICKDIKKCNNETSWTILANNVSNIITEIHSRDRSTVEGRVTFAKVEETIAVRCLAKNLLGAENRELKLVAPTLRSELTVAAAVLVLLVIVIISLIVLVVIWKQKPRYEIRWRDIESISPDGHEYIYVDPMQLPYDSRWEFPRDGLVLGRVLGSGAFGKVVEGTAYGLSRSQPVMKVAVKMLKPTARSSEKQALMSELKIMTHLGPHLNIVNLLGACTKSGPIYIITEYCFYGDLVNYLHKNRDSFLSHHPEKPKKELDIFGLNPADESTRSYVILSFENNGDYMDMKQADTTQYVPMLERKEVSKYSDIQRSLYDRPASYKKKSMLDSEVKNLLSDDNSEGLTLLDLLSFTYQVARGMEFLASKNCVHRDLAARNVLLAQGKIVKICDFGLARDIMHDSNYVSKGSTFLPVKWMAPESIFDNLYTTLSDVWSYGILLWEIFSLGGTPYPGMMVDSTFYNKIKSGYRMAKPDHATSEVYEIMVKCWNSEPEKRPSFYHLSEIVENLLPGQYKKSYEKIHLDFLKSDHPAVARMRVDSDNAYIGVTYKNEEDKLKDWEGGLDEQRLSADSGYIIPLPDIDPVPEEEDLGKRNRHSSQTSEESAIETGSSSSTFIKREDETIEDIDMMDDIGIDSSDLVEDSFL
ASSAY: Off-chip Mobility Shift Assay (MSA) kinase inhibition
Assay type: biochemical
STATED_CONDITIONS: inhibitor concentration 0.01 μM

COMPOUND	SYSTEM	inhibition at 0.01 µM
COCCS(=O)(=O)Nc1ccc(F)c(C(=O)c2c[nH]c3ncc(-c4ccc(Cl)cc4)cc23)c1F	PDGFRα(V561D) (Homo sapiens, UniProt P16234, V561D)	< 20%
O=C(c1c(F)ccc(NS(=O)(=O)CCCO)c1F)c1c[nH]c2ncc(-c3ccc(Cl)cc3)cc12	PDGFRα(V561D) (Homo sapiens, UniProt P16234, V561D)	< 30%
C/C=C/S(=O)(=O)Nc1ccc(F)c(C(=O)c2c[nH]c3ncc(-c4ccc(Cl)cc4)cc23)c1F [200-93a]	PDGFRα(V561D) (Homo sapiens, UniProt P16234, V561D)	> 30%
COCCCS(=O)(=O)Nc1ccc(F)c(C(=O)c2c[nH]c3ncc(-c4ccc(Cl)cc4)cc23)c1F	PDGFRα(V561D) (Homo sapiens, UniProt P16234, V561D)	< 20%

* * *

SYSTEM: BTK (Homo sapiens, UniProt Q06187)
Construct: purchased Carna Biosciences
Sequence (Q06187 whole entry): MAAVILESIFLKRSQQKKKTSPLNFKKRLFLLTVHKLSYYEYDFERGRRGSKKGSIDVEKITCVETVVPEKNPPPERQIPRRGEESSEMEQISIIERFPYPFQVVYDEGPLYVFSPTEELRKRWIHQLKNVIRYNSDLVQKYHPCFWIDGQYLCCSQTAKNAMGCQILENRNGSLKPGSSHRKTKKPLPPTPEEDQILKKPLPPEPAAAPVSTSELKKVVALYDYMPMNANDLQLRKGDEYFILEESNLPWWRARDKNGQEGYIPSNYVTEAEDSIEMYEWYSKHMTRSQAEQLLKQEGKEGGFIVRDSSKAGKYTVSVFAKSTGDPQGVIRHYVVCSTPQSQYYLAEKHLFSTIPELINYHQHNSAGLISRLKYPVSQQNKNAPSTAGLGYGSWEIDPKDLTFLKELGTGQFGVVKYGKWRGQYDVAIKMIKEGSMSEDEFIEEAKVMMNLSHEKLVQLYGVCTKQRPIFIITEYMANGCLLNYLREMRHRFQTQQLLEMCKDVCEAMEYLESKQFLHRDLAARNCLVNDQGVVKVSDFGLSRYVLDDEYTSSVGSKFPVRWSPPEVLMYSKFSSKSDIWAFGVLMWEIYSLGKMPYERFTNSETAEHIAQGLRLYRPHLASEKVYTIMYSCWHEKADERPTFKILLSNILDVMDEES
ASSAY: Off-chip Mobility Shift Assay (MSA) kinase inhibition
Format: biochemical
STATED_CONDITIONS: inhibitor concentration 0.1 μM
Protocol: Off-chip Mobility Shift Assay (MSA) by Cama Biosciences, Inc (Natick, Mass.) a used for measuring the kinase activity and inhibition. • 1) The 5 μL of x4 compound solution, 5 μL of x4 Substrate/ATP/Metal solution, and 10 μL of x2 kinase solution were prepared with assay buffer (20 mM HEPES, 0.01% Triton X100, 2 mM DTT, pH 7.5) and mixed and incubated in a well of polypropylene 384 well microplate for 1 or 5 hour(s)* at room temperature.

COMPOUND	inhibition at 0.1 µM
O=C(c1c(F)ccc(NS(=O)(=O)CCCO)c1F)c1c[nH]c2ncc(-c3ccc(Cl)cc3)cc12 [200-17]	< 50%
CC(=O)CS(=O)(=O)Nc1ccc(F)c(C(=O)c2c[nH]c3ncc(-c4ccc(Cl)cc4)cc23)c1F [200-117]	< 30%
O=C(c1c(F)ccc(NS(=O)(=O)CC(O)CO)c1F)c1c[nH]c2ncc(-c3ccc(Cl)cc3)cc12 (stereo not shown) [200-73]	< 30%
CC(O)CS(=O)(=O)Nc1ccc(F)c(C(=O)c2c[nH]c3ncc(-c4ccc(Cl)cc4)cc23)c1F (stereo not shown) [200-115]	< 30%

* * *

SYSTEM: BRK (Homo sapiens, UniProt Q13882)
Construct: purchased Carna Biosciences
Sequence (Q13882 whole entry): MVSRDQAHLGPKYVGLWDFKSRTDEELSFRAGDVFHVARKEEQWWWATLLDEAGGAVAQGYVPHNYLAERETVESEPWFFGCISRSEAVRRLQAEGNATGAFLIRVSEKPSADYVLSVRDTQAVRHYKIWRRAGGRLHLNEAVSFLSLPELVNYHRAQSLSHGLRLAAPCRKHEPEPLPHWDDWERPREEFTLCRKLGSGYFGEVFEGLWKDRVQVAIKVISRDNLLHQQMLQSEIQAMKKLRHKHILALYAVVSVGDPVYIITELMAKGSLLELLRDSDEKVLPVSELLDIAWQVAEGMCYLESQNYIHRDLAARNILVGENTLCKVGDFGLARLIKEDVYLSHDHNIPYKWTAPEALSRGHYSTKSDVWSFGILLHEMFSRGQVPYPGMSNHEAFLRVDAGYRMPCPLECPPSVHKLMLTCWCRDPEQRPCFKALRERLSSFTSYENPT
ASSAY: Off-chip Mobility Shift Assay (MSA) kinase inhibition
Type: biochemical
STATED_CONDITIONS: inhibitor concentration 0.1 μM
molecules and their reported inhibition at 0.1 µM

MOLECULE	inhibition at 0.1 µM
O=C(c1c(F)ccc(NS(=O)(=O)CCCO)c1F)c1c[nH]c2ncc(-c3ccc(Cl)cc3)cc12 [200-17]	> 50%
O=C(c1c(F)ccc(NS(=O)(=O)CC(O)CO)c1F)c1c[nH]c2ncc(-c3ccc(Cl)cc3)cc12 (stereo not shown) [200-73]	> 30%
CC(=O)CS(=O)(=O)Nc1ccc(F)c(C(=O)c2c[nH]c3ncc(-c4ccc(Cl)cc4)cc23)c1F [200-117]	> 30%
CC(O)CS(=O)(=O)Nc1ccc(F)c(C(=O)c2c[nH]c3ncc(-c4ccc(Cl)cc4)cc23)c1F (stereo not shown) [200-115]	> 30%

Data provenance is patent US10106538B2.
